METHOD: pharmacokinetics in plasma and brain after intraperitoneal administration (UPLC-MS/MS)
Assay type: in vivo, mouse
Parameters: key: F, female; M, male; NS, not statistically different
CONDITION_INFO: female vs male mice; i.p. 5 mg/kg; ANOVA, Holm-Šídák post-hoc
MEASURED_METRIC: Plasma Concentration over time, sex-dependent difference

N[C@]1(c2ccccc2Cl)CCC[C@@H](O)C1=O    NS
N[C@@]1(c2ccccc2Cl)CCC[C@@H](O)C1=O [(2R,6R)-HNK, (2R,6R)-hydroxynorketamine]    F > M at 10, 30 min
N[C@]1(c2ccccc2Cl)C[C@@H](O)CCC1=O    F > M at 10, 30 min

----------
METHOD: pharmacokinetics in plasma and brain after intraperitoneal administration (UPLC-MS/MS)
Type: in vivo, mouse
CONDITION_INFO: female mice; i.p. 5 mg/kg; terminal half-life
The reader will find reported t1/2 Brain values listed item by item below.
A bare number is not enough; add the unit after it.

N[C@@]1(c2ccccc2Cl)CC[C@H](O)CC1=O    30 min

What value of t1/2 Brain has been reported for the following compound? N[C@]1(c2ccccc2Cl)CC[C@@H](O)CC1=O
30 min

For N[C@]1(c2ccccc2Cl)C[C@H](O)CCC1=O , what is its reported t1/2 Brain?
18 min

Reported t1/2 Brain for N[C@@]1(c2ccccc2Cl)CC[C@@H](O)CC1=O : what is it?
30 min

Consider the compound N[C@]1(c2ccccc2Cl)CC[C@H](O)CC1=O and give its measured t1/2 Brain.
18 min

----------
Tested on: Male CD-1 mice
METHOD: mouse forced swim test, immobility time 24 h after treatment
Format: in vivo
CONDITION_INFO: male mice; i.p.; 24 h after treatment
MEASURED_METRIC: minimum effective dose to reduce immobility time in the forced swim test (mg/kg)
Your answer is read as mg/kg, so omit the unit and give the number.

Completed entries (count: 2):
N[C@]1(c2ccccc2Cl)CCC[C@@H](O)C1=O [(2S,6R)-HNK]    3
N[C@@]1(c2ccccc2Cl)CCC[C@H](O)C1=O [(2R,6S)-HNK]    1

Tell me the measured minimum effective dose to reduce immobility time in the forced swim test of N[C@@]1(c2ccccc2Cl)CCC[C@@H](O)C1=O [(2R,6R)-HNK, (2R,6R)-hydroxynorketamine] , please.
10

Param item = N[C@]1(c2ccccc2Cl)CCC[C@H](O)C1=O [(2S,6S)-HNK, (2S,6S)-hydroxynorketamine] ; retrieve measured minimum effective dose to reduce immobility time in the forced swim test.
30

Reported minimum effective dose to reduce immobility time in the forced swim test, compound C[C@@H]1CC[C@@](N)(c2ccccc2Cl)C(=O)[C@@H]1O.Cl [(5R)-methyl-(2R,6R)-HNK] : ____
1

----------
METHOD: pharmacokinetics in plasma and brain after intraperitoneal administration (UPLC-MS/MS)
Format: in vivo, mouse
CONDITION_INFO: both sexes, CD-1, mouse, brain and plasma, ip; male and female mice; i.p. 5 mg/kg; read-out: brain to plasma AUC (exposure) ratio
MEASURED_METRIC: Kp
Format: numeric value only, no unit, no commentary.

I'd like to know its Kp. The compound in question is C[C@@H]1CC[C@@](N)(c2ccccc2Cl)C(=O)[C@@H]1O.Cl
0.4

----------
METHOD: oral bioavailability in mice
CONDITION_INFO: mouse, in vivo
MEASURED_METRIC: bioavailability

// returns reported bioavailability for input N[C@@]1(c2ccccc2Cl)CCC[C@@H](O)C1=O [(2R,6R)-HNK, (2R,6R)-hydroxynorketamine]
~50%

----------
METHOD: pharmacokinetics in plasma and brain after intraperitoneal administration (UPLC-MS/MS)
Assay type: in vivo, mouse
CONDITION_INFO: male mice; i.p. 5 mg/kg; terminal half-life
MEASURED_METRIC: t1/2 Plasma
Please make sure the unit comes right after the number.

The following molecules have reported results that may help.
N[C@@]1(c2ccccc2Cl)C[C@@H](O)CCC1=O [(2R,4S)-HNK]    36 min
N[C@]1(c2ccccc2Cl)C[C@@H](O)CCC1=O [(2S,4S)-HNK]    42 min

Look up t1/2 Plasma for this molecule: N[C@]1(c2ccccc2Cl)CC[C@@H](O)CC1=O [(2S,5R)-HNK]
36 min

GET /values?readout=t1/2 Plasma&item= N[C@@]1(c2ccccc2Cl)CC[C@H](O)CC1=O [(2R,5S)-HNK]
30 min

What t1/2 Plasma value was documented for this molecule, N[C@]1(c2ccccc2Cl)C[C@H](O)CCC1=O [(2S,4R)-HNK] ?
30 min

----------
METHOD: pharmacokinetics in plasma and brain after intraperitoneal administration (UPLC-MS/MS)
Format: in vivo, mouse
CONDITION_INFO: female vs male mice; i.p. 5 mg/kg; ANOVA, Holm-Šídák post-hoc
MEASURED_METRIC: Brain Concentration over time, sex-dependent difference

Solved entries:
N[C@]1(c2ccccc2Cl)CCC[C@H](O)C1=O [(2S,6S)-HNK, (2S,6S)-hydroxynorketamine]    F > M at 10, 30 min
N[C@]1(c2ccccc2Cl)C[C@H](O)CCC1=O    F > M at 10 min
N[C@]1(c2ccccc2Cl)C[C@@H](O)CCC1=O    F > M at 10, 30 min
N[C@]1(c2ccccc2Cl)CC[C@@H](O)CC1=O    NS

Item N[C@@]1(c2ccccc2Cl)CC[C@H](O)CC1=O has what recorded Brain Concentration over time, sex-dependent difference?
F > M at 10, 30 min

What Brain Concentration over time, sex-dependent difference value was documented for this molecule, N[C@]1(c2ccccc2Cl)CC[C@H](O)CC1=O ?
NS

Form field: reported Brain Concentration over time, sex-dependent difference of N[C@@]1(c2ccccc2Cl)C[C@H](O)CCC1=O
F > M at 10 min

Requested read-out: Brain Concentration over time, sex-dependent difference. Entry: N[C@@]1(c2ccccc2Cl)CC[C@@H](O)CC1=O
NS

# Brain Concentration over time, sex-dependent difference lookup, item C[C@@H]1CC[C@@](N)(c2ccccc2Cl)C(=O)[C@@H]1O.Cl
NS

Please give the measured Brain Concentration over time, sex-dependent difference for this molecule: N[C@@]1(c2ccccc2Cl)CCC[C@@H](O)C1=O [(2R,6R)-HNK, (2R,6R)-hydroxynorketamine]
F > M at 10, 30 min

Brain Concentration over time, sex-dependent difference for N[C@@]1(c2ccccc2Cl)CCC[C@H](O)C1=O ?
NS

----------
METHOD: pharmacokinetics in plasma and brain after intraperitoneal administration (UPLC-MS/MS)
Format: in vivo, mouse
CONDITION_INFO: female mice; i.p. 5 mg/kg; terminal half-life
t1/2 Plasma: recorded values
Give the number; min is assumed, so skip it.

N[C@@]1(c2ccccc2Cl)C[C@@H](O)CCC1=O    42

Recorded t1/2 Plasma for N[C@@]1(c2ccccc2Cl)CC[C@@H](O)CC1=O , please?
30

Could you share which t1/2 Plasma value was measured for N[C@@]1(c2ccccc2Cl)C[C@H](O)CCC1=O ?
30

Which t1/2 Plasma reading was recorded for the molecule N[C@@]1(c2ccccc2Cl)CC[C@H](O)CC1=O ?
30

Entry under review: N[C@]1(c2ccccc2Cl)CC[C@H](O)CC1=O . Reported t1/2 Plasma?
36

t1/2 Plasma lookup needed for N[C@]1(c2ccccc2Cl)CC[C@@H](O)CC1=O , thanks.
30

So what does the record say about t1/2 Plasma for N[C@]1(c2ccccc2Cl)C[C@@H](O)CCC1=O ?
42

Find the recorded t1/2 Plasma belonging to N[C@]1(c2ccccc2Cl)C[C@H](O)CCC1=O and report it.
24

----------
METHOD: pharmacokinetics in plasma and brain after intraperitoneal administration (UPLC-MS/MS)
Type: in vivo, mouse
CONDITION_INFO: CD-1, mouse, brain, ip; female mice; i.p. 5 mg/kg; terminal half-life; read-out: t1/2 Brain (converted)
MEASURED_METRIC: half-life

Some molecules with recorded half-life:
C[C@@H]1CC[C@@](N)(c2ccccc2Cl)C(=O)[C@@H]1O.Cl    42 min
N[C@]1(c2ccccc2Cl)CCC[C@H](O)C1=O [(2S,6S)-HNK, (2S,6S)-hydroxynorketamine]    42 min
N[C@@]1(c2ccccc2Cl)CCC[C@H](O)C1=O    24 min

Now examine the next entry.
Dear colleague, I am looking for the recorded half-life of the following molecule: N[C@@]1(c2ccccc2Cl)CCC[C@@H](O)C1=O [(2R,6R)-HNK, (2R,6R)-hydroxynorketamine]
36 min

----------
METHOD: pharmacokinetics in plasma and brain after intraperitoneal administration (UPLC-MS/MS)
Type: in vivo, mouse
CONDITION_INFO: female vs male mice; i.p. 5 mg/kg; t-test
Procedure: Male and female CD-1 mice (Charles Rivers Laboratories, Raleigh, NC, USA), 8-11 weeks old at the time of testing, were habituated to the University of Maryland (Baltimore, MD, USA) animal facility for at least one week prior to testing. Mice were group housed 4-5 per cage with a constant 12-hour light cycle (lights on/off at 07:00/19:00). Food and water were available ad libitum. All experiments were performed during the light phase. […]
MEASURED_METRIC: Plasma Total exposure (AUC), sex-dependent difference

N[C@@]1(c2ccccc2Cl)CCC[C@@H](O)C1=O [(2R,6R)-HNK, (2R,6R)-hydroxynorketamine]    F > M
N[C@@]1(c2ccccc2Cl)CC[C@@H](O)CC1=O    M > F
N[C@]1(c2ccccc2Cl)CC[C@@H](O)CC1=O    M > F
N[C@@]1(c2ccccc2Cl)C[C@H](O)CCC1=O    M > F

Query: Plasma Total exposure (AUC), sex-dependent difference; subject: N[C@@]1(c2ccccc2Cl)C[C@@H](O)CCC1=O
M > F

# credit: patent US20230331655A1
